Source of measurements: patent US20110165066A1

# TESTED_TARGET: T1, human IL-13 wild type (human, UniProt P35225 35-146)
# T1 construct: also called h IL-13; h IL-13 wt
# T1 sequence (P35225 other isoform, or with tags, fused parts or gaps limits assumed): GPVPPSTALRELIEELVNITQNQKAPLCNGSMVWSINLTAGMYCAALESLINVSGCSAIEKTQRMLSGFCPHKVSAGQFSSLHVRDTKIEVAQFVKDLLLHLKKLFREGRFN
# ASSAY_OVERVIEW: SPR (Biacore)
This listing pairs binders with measured koff.
The answer is to be given in s⁻¹; state only the numeric part.

13C5.2 (antibody, human IgG1, V domains shown, Humanized) VH: EVTLKESGPVLVKPTETLTLTCTFSGFSLSTSDMGVDWIRQPPGKALEWLAHIWWDDVKRYNPALKSRLTISKDTSKSQVVLTMTNMDPVDTATYYCARTVSSGYIYYAMDYWGQGTTVTVSS VL: DIQMTQTPSSLSASVGDRVTISCRASQDIRNYLNWYQRKPGKVVKLLIFYTSKLHSGVPSRFSGSGSGTDYTLTISSLQPEDVATYFCQQGNTLPLTFGGGTKVEIKR = 0.000123
5G1.2 (antibody, human IgG1, V domains shown, Humanized) VH: EVQLVQSGAEVKKPGASVKVSCKASGYTFTTYGVSWVRQAPGQGLEWIGEIYPGNYNTYYNEKFRGKATLTADKSTSTAYMELSSLRSDDTAVYFCSRWRTSYFSDYGYFDYWGQGTTVTVSS VL: DVVMTQSPLSLPVTLGQPASISCRSSQSLVHSHGNTYLHWYQQRPGQSPRLLIYTVSNRFSGVPDRFSGSGSGTDFTLKISRVEAEDVGVYFCSQSTHVPYTFGGGTKVEIKR = 8.81e-05

Data request: So what's the measured koff for this one? 5G1.1 (antibody, human IgG1, V domains shown, Humanized) VH: EVQLVQSGAEVKKPGASVKVSCKASGYTFTTYGVSWVRQAPGQGLEWIGEIYPGNYNTYYNEKFRGKATMTTDTSTSTAYMELRSLRSDDTAVYYCSRWRTSYFSDYGYFDYWGQGTTVTVSS VL: DVVMTQSPLSLPVTLGQPASISCRSSQSLVHSHGNTYLHWYQQRPGQSPRLLIYTVSNRFSGVPDRFSGSGSGTDFTLKISRVEAEDVGVYYCSQSTHVPYTFGGGTKVEIKR
Data returned: 2.14e-05
